Field: tissue uptake at 24 h. Provide a value for each of the compounds that follow.
Assay: Biodistribution studies in HEK-uPAR xenograft-bearing nude mice
Conditions: female, CD1/nude, mouse, blood, 5 MBq (0.5 nmol), total radioactivity, 24 h p.i.; 5 MBq, 0.5 nmol; decay-corrected; average ± SD, n=3 animals
Give bare numbers, in %ID/g.

Answered cases to consult:
[[record]]
compound = "CC(C)C[C@H](NC(=O)[C@H](Cc1ccc(O)cc1)NC(=O)[C@@H](CCCNC(=N)N)NC(=O)[C@@H](CO)NC(=O)[C@H](Cc1ccccc1)NC(=O)[C@H](CC1CCCCC1)NC(=O)[C@H](CC(=O)O)NC(=O)[C@H](CCCCNC(=O)CCCc1ccc(I)cc1)NC(=O)[C@@H](N)CCCCNC(=O)CN1CCN(CC(=O)O)CCN(CC(=O)O)CCN(CC(=O)O)CC1)C(=O)N[C@@H](Cc1c[nH]c2ccccc12)C(=O)N[C@@H](CO)C(N)=O [[^177Lu]Lu-uPAR-04, metal not drawn]"
assay_metric = "tissue uptake at 24 h"
observed_value = 7

[[record]]
compound = "CC(C)C[C@H](NC(=O)[C@H](Cc1ccc(O)cc1)NC(=O)[C@@H](CCCNC(=N)N)NC(=O)[C@@H](CO)NC(=O)[C@H](Cc1ccccc1)NC(=O)[C@H](CC1CCCCC1)NC(=O)[C@H](CC(=O)O)NC(=O)CCOCCOCCOCCOCCNC(=O)[C@H](CCCCNC(=O)CCCc1ccc(I)cc1)NC(=O)CN1CCN(CC(=O)O)CCN(CC(=O)O)CCN(CC(=O)O)CC1)C(=O)N[C@@H](Cc1c[nH]c2ccccc12)C(=O)N[C@@H](CO)C(N)=O [[^177Lu]Lu-uPAR-05, metal not drawn]"
assay_metric = "tissue uptake at 24 h"
observed_value = 4.6


We next turn to a different compound, shown below.
Consider the compound CC(C)C[C@H](NC(=O)[C@H](Cc1ccc(O)cc1)NC(=O)[C@@H](CCCNC(=N)N)NC(=O)[C@@H](CO)NC(=O)[C@H](Cc1ccccc1)NC(=O)[C@H](CC1CCCCC1)NC(=O)[C@H](CC(=O)O)NC(=O)[C@H](CCCCNC(=O)CCCc1ccc(I)cc1)NC(=O)CN1CCN(CC(=O)O)CCN(CC(=O)O)CCN(CC(=O)O)CC1)C(=O)N[C@@H](Cc1c[nH]c2ccccc12)C(=O)N[C@@H](CO)C(N)=O [[^177Lu]Lu-uPAR-01, metal not drawn] and give its recorded tissue uptake at 24 h.
4.5

====

Test: Stability of the radiopeptides in human blood plasma
Conditions: human, human blood plasma
Field: remaining at 4 h, 10 MBq/200 µL. Provide a value for each of the compounds that follow.
Answers are plain numbers, in %.

Answered cases to consult:
[[record]]
compound = "CC(C)C[C@H](NC(=O)[C@H](Cc1ccc(O)cc1)NC(=O)[C@@H](CCCNC(=N)N)NC(=O)[C@@H](CO)NC(=O)[C@H](Cc1ccccc1)NC(=O)[C@H](CC1CCCCC1)NC(=O)[C@H](CC(=O)O)NC(=O)[C@H](CCCCNC(=O)CCCc1ccc(I)cc1)NC(=O)CN1CCN(CC(=O)O)CCN(CC(=O)O)CCN(CC(=O)O)CC1)C(=O)N[C@@H](Cc1c[nH]c2ccccc12)C(=O)N[C@@H](CO)C(N)=O [[^177Lu]Lu-uPAR-01, metal not drawn]"
assay_metric = "remaining at 4 h, 10 MBq/200 µL"
observed_value = 99

[[record]]
compound = "CC(C)C[C@H](NC(=O)[C@H](Cc1ccc(O)cc1)NC(=O)[C@@H](CCCNC(=N)N)NC(=O)[C@@H](CO)NC(=O)[C@H](Cc1ccccc1)NC(=O)[C@H](CC1CCCCC1)NC(=O)[C@H](CC(=O)O)NC(=O)CCOCCOCCOCCOCCNC(=O)[C@H](CCCCNC(=O)CCCc1ccc(I)cc1)NC(=O)CN1CCN(CC(=O)O)CCN(CC(=O)O)CCN(CC(=O)O)CC1)C(=O)N[C@@H](Cc1c[nH]c2ccccc12)C(=O)N[C@@H](CO)C(N)=O [[^177Lu]Lu-uPAR-05, metal not drawn]"
assay_metric = "remaining at 4 h, 10 MBq/200 µL"
observed_value = 99


Consider the compound CC(C)C[C@H](NC(=O)[C@H](Cc1ccc(O)cc1)NC(=O)[C@@H](CCCNC(=N)N)NC(=O)[C@@H](CO)NC(=O)[C@H](Cc1ccccc1)NC(=O)[C@H](CC1CCCCC1)NC(=O)[C@H](CC(=O)O)NC(=O)[C@H](CCCCNC(=O)CCCc1ccc(I)cc1)NC(=O)[C@@H](N)CCCCNC(=O)CN1CCN(CC(=O)O)CCN(CC(=O)O)CCN(CC(=O)O)CC1)C(=O)N[C@@H](Cc1c[nH]c2ccccc12)C(=O)N[C@@H](CO)C(N)=O [[^177Lu]Lu-uPAR-04, metal not drawn] and give its recorded remaining at 4 h, 10 MBq/200 µL.
98
